A collection of compounds and their measured inhibition at 0.04 µM
Target: CDK4 (Homo sapiens, UniProt P11802+Q16531)
Assay: CDK4 percentage degradation in Calu-1 cells (Table 6)
Format: cell-based
Set-up: Cells that express cyclin D1-3 and CDK4/6 proteins were treated with heterobifunctional compounds; endogenous in cells; host or cells: Calu-1
Conditions: 40 nM, 16 hours
Sequence (P11802 2-303 limits assumed): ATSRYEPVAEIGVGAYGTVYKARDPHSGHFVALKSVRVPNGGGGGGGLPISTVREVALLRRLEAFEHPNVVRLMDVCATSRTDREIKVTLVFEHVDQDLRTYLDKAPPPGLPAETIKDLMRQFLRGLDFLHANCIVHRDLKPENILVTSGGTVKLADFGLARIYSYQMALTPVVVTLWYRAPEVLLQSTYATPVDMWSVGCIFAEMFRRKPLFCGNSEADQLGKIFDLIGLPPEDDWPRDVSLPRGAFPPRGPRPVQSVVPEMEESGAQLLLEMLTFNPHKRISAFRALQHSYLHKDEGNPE
Sequence (P24385 whole entry partner): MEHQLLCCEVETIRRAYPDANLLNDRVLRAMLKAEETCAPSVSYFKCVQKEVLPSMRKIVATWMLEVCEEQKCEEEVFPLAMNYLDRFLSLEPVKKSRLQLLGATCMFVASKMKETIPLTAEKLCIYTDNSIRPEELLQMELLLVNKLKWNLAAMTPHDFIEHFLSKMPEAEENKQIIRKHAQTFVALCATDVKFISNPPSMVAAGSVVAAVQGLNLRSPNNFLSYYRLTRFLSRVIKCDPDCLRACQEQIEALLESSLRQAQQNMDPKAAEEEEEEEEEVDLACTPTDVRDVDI
Sequence (Q16531 2-1140 limits assumed): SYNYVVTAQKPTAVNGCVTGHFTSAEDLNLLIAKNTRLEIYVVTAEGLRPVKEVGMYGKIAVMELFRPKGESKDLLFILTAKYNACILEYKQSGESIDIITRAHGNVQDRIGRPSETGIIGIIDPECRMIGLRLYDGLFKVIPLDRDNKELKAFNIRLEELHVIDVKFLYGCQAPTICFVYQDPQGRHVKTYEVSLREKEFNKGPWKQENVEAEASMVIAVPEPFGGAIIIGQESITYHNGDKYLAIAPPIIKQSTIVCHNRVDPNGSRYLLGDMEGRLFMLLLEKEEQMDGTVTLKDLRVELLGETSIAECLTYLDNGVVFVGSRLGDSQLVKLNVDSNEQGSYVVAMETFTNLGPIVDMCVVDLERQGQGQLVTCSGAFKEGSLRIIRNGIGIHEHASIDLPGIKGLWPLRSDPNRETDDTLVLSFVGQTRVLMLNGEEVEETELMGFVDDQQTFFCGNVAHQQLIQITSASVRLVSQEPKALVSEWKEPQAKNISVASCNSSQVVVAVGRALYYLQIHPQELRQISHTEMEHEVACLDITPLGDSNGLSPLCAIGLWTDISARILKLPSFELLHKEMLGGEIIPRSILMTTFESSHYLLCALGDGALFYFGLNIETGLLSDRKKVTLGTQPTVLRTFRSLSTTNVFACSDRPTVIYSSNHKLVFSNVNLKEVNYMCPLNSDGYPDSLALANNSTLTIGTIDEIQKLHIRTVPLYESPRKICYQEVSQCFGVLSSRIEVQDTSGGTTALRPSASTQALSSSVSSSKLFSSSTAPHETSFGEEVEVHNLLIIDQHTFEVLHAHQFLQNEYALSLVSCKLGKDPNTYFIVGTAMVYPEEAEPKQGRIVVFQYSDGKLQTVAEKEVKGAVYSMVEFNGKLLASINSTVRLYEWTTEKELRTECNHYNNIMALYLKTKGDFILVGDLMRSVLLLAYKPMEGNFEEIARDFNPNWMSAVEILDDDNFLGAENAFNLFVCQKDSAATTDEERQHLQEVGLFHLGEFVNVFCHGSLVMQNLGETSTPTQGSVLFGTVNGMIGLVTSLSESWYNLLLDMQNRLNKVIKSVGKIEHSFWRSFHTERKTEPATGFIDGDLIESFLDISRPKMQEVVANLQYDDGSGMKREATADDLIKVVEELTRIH

Compound	inhibition at 0.04 µM
CNc1ccc(C(=O)Nc2ccc(N(C)C)nn2)c(NC2CC3(CC(NC(=O)C(C)(C)N4CCN(c5ccc(Nc6ncc7c(C)c(C(C)=O)c(=O)n(C8CCCC8)c7n6)nc5)CC4)C3)C2)n1 (centres unmarked)	50 to 80%
CNc1ccc(C(=O)Nc2cc(C(C)C)n(C)n2)c(NC2CC3(CC(NC(=O)CN4CCN(c5ccc(Nc6ncc7c(C)c(C(C)=O)c(=O)n(C8CCCC8)c7n6)nc5)CC4)C3)C2)n1 (centres unmarked)	< 30%
CC(=O)c1c(C)c2cnc(Nc3ccc(N4CCN(CC(=O)NCCCCCNc5nc(C#N)ccc5C(=O)Nc5ccc(N(C)C)nn5)CC4)cn3)nc2n(C2CCCC2)c1=O	50 to 80%
[2H]C([2H])([2H])Nc1ccc(C(=O)Nc2cn(C)c(C3CC3)n2)c(NC2CC3(CC(NC(=O)CN4CCN(c5ccc(Nc6ncc7c(C)c(C(C)=O)c(=O)n(C8CCCC8)c7n6)nc5)CC4)C3)C2)n1 (centres unmarked)	50 to 80%
CC(=O)c1c(C)c2cnc(Nc3ccc(N4CCN(CC(=O)NCCCCCNc5nc(C(C)C)ccc5C(=O)Nc5ccc(N(C)C)nn5)CC4)cn3)nc2n(C2CCCC2)c1=O	> 80%
CNc1ccc(C(=O)Nc2cnn(C)c2)c(NC2CC3(CC(NC(=O)CN4CCN(c5ccc(Nc6ncc7c(C)c(C(C)=O)c(=O)n(C8CCCC8)c7n6)nc5)CC4)C3)C2)n1 (centres unmarked)	< 30%
CNc1ccc(C(=O)Nc2cc(C)n(C)n2)c(NC2CC3(CC(NC(=O)CN4CCN(c5ccc(Nc6ncc7c(C)c(C(C)=O)c(=O)n(C8CCCC8)c7n6)nc5)CC4)C3)C2)n1 (centres unmarked)	50 to 80%
CNc1ccc(C(=O)Nc2cccc(C3CC3)n2)c(NC2CC3(C2)CN(C(=O)CCN2CCN(c4ccc(Nc5ncc6c(C)c(C(C)=O)c(=O)n(C7CCCC7)c6n5)nc4)CC2)C3)n1	> 80%
CNc1ccc(C(=O)Nc2ccc(N(C)C)nn2)c(NCCCCCNC(=O)CN2CCN(c3ccc(Nc4ncc5c(C)c(C(C)=O)c(=O)n(C6CCCC6)c5n4)nc3)CC2)n1	50 to 80%
CNc1ccc(C(=O)Nc2ccc(N(C)C)nn2)c(NC2CCN(C(=O)CCN3CCN(c4ccc(Nc5ncc6c(C)c(C(C)=O)c(=O)n(C7CCCC7)c6n5)nc4)CC3)CC2)n1	50 to 80%
[2H]C([2H])([2H])Nc1ccc(C(=O)Nc2ccc(N(C)C)nn2)c(NC2CN(C(=O)C(F)(F)CN3CCN(c4ccc(Nc5ncc6c(C)c(C(C)=O)c(=O)n(C7CCCC7)c6n5)nc4)CC3)C2)n1	< 30%

* * *

Target: CDK4 (Homo sapiens, UniProt P11802+Q16531)
Assay: CDK4 percentage degradation in Calu-1 cells (Table 6)
Format: cell-based
Set-up: Cells that express cyclin D1-3 and CDK4/6 proteins were treated with heterobifunctional compounds; endogenous in cells; host or cells: Calu-1
Conditions: 200 nM, 16 hours

Compound	System tested	inhibition at 0.2 µM
CNc1ccc(C(=O)Nc2cn(C(C)C)c(C)n2)c(NC2CC3(CC(NC(=O)CN4CCN(c5ccc(Nc6ncc7c(C)c(C(C)=O)c(=O)n(C8CCCC8)c7n6)nc5)CC4)C3)C2)n1 (stereo not drawn) [CPD-238]	CDK4 (Homo sapiens, UniProt P11802+Q16531)	< 30%
CC(=O)c1c(C)c2cnc(Nc3ccc(N4CCN(CC(=O)NCC5CC(Nc6nc(NC(C)C)ccc6C(=O)Nc6cc(C)on6)C5)CC4)cn3)nc2n(C2CCCC2)c1=O (stereo not drawn) [CPD-282]	CDK4 (Homo sapiens, UniProt P11802+Q16531)	< 30%
[2H]C([2H])([2H])Nc1ccc(C(=O)Nc2cc(C)on2)c(NC2CC3(CC(NC(=O)CN4CCN(c5ccc(Nc6ncc7c(C)c(C(C)=O)c(=O)n(C8CCCC8)c7n6)nc5)CC4)C3)C2)n1 (stereo not drawn) [CPD-225]	CDK4 (Homo sapiens, UniProt P11802+Q16531)	50 to 80%

* * *

Quick reference for inhibition at 0.04 µM among some compounds
Target: CDK4 (Homo sapiens, UniProt P11802+Q16531)
Assay: CDK4 percentage degradation in Calu-1 cells (Table 6)
Format: cell-based
Set-up: Cells that express cyclin D1-3 and CDK4/6 proteins were treated with heterobifunctional compounds; endogenous in cells; host or cells: Calu-1
Settings: 40 nM, 16 hours
Experimental: Calu-(cells were treated with heterobifunctional compounds at 40 nM or 200 nM for 16 hours A: protein percentage degradation […]; B: protein percentage degradation <80%, and ≥50%; C: protein percentage degradation <50%, and ≥30%; D; protein percentage degradation […]; -, data not available. Calu-1, T47D, MCF7, HCC1428 and other cells were cultured at 37° C. with 5% CO2 in RPMI 1640 or DMEM medium supplemented with 10% fetal bovine serum. […]

Compound	inhibition at 0.04 µM
CNc1ccc(C(=O)Nc2ccc(N(C)C)nn2)c(NCCCCC(=O)NCCN2CCN(c3ccc(Nc4ncc5c(C)c(C(C)=O)c(=O)n(C6CCCC6)c5n4)nc3)CC2)n1	30 to 50%
CNc1ccc(C(=O)Nc2ccc(N(C)C)nn2)c(NC2CCN(C(=O)CCN3CCN(c4ccc(Nc5ncc6c(C)c(C(C)=O)c(=O)n(C7CCCC7)c6n5)nc4)CC3)C2)n1 (centres unmarked)	50 to 80%
CNc1ccc(C(=O)Nc2cc(C)n(C)n2)c(NC[C@H]2CC[C@H](NC(=O)CN3CCN(c4ccc(Nc5ncc6c(C)c(C(C)=O)c(=O)n(C7CCCC7)c6n5)nc4)CC3)CC2)n1	< 30%
CNc1ccc(C(=O)Nc2ccc(N(C)C)nn2)c(NC2CC(CCCC(=O)N3CCN(c4ccc(Nc5ncc6c(C)c(C(C)=O)c(=O)n(C7CCCC7)c6n5)nc4)CC3)C2)n1 (centres unmarked)	50 to 80%
CNc1ccc(C(=O)Nc2ccc(N(C)C)nn2)c(N[C@H]2CC[C@H](NC(=O)CCN3CCN(c4ccc(Nc5ncc6c(C)c(C(C)=O)c(=O)n(C7CCCC7)c6n5)nc4)CC3)CC2)n1	50 to 80%

* * *

# activity at 0.1 µM values compiled below
Biological target: CDK4 (Homo sapiens, UniProt P11802+Q16531)
Test: HiBiT detection of HiBiT-tagged CDK4 protein level in MCF7 cells, 16 hours (Table 8)
Format: cell-based
Design: expressed in transfected cells; host or cells: MCF7
Conditions: 100 nM, MCF7 cells stably expressing HiBiT tagged target proteins, read-out: % CDK4 Relative Level (100 nM)
Sequence (P11802 whole entry): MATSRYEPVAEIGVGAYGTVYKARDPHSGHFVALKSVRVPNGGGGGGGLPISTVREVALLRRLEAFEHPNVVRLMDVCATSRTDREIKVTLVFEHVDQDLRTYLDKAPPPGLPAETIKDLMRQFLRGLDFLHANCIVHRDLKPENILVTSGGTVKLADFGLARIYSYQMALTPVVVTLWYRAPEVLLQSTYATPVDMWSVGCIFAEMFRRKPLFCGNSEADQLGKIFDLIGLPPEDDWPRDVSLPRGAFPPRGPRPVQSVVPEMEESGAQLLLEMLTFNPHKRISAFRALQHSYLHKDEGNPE
Sequence (P24385 whole entry partner): as the sequence (P24385 whole entry partner) above
Sequence (Q16531 2-1140 limits assumed): as the sequence (Q16531 2-1140 limits assumed) above
Observed property: activity at 0.1 µM

Compound	Observed property	Value reported
CC(=O)c1c(C)c2cnc(Nc3ccc(N4CCN(CCC(=O)N5CC6(CC(Nc7nc(NC(C)C)ccc7C(=O)Nc7cc(C)n(C)n7)C6)C5)CC4)cn3)nc2n(C2CCCC2)c1=O [CPD-302]	activity at 0.1 µM	55 to 85%
CC(=O)c1c(C)c2cnc(Nc3ccc(CN4CCN(CC(=O)NC5CCC(Nc6nc(NC(C)C)ccc6C(=O)Nc6ccc(N(C)C)nn6)C5)CC4)cn3)nc2n(C2CCCC2)c1=O (centres unmarked) [CPD-501]	activity at 0.1 µM	> 85%
CNc1ccc(C(=O)Nc2ccc(N(C)C)nn2)c(NCCCCC(=O)N2CCN(Cc3ccc(Nc4ncc(F)c(-c5cc(F)c6nc(C)n(C(C)C)c6c5)n4)nc3)CC2)n1 [CPD-602]	activity at 0.1 µM	55 to 85%
CC(=O)c1c(C)c2cnc(Nc3ccc(C(C)N4CCN(CC(=O)NC5CC6(C5)CC(Nc5nc(NC(C)C)ccc5C(=O)Nc5ccc(N(C)C)nn5)C6)CC4)cn3)nc2n(C2CCCC2)c1=O (centres unmarked) [CPD-586]	activity at 0.1 µM	55 to 85%
CC(=O)c1c(C)c2cnc(Nc3ccc(N4CCN(C5CCN(C(=O)C67CC(Nc8nc(NC(C)C)ccc8C(=O)Nc8cc(C)on8)(C6)C7)C5)CC4)cn3)nc2n(C2CCCC2)c1=O (centres unmarked) [CPD-591]	activity at 0.1 µM	55 to 85%
CNc1ccc(C(=O)Nc2ccc(N(C)C)nn2)c(NCCCC(=O)N2CCN(c3ccc(Nc4ncc5cc(C(=O)N(C)C)n(C6CCCC6)c5n4)nc3)CC2)n1 [CPD-617]	activity at 0.1 µM	> 85%
CC(=O)c1c(C)c2cnc(Nc3ccc(N4CCN(C5CCN(C(=O)[C@H]6CC[C@H](Nc7nc(C(C)C)ccc7C(=O)Nc7ccc(N(C)C)nn7)CC6)C5)CC4)cn3)nc2n(C2CCCC2)c1=O (some centres unmarked) [CPD-499]	activity at 0.1 µM	55 to 85%
CC(=O)c1c(C)c2cnc(Nc3ccc(N4CCN(C5CCN(C(=O)[C@H]6CC[C@H](Nc7nc(C8CC8)ccc7C(=O)Nc7ccc(N(C)C)nn7)CC6)C5)CC4)cn3)nc2n(C2CCCC2)c1=O (some centres unmarked) [CPD-573]	activity at 0.1 µM	55 to 85%
CNc1ccc(C(=O)Nc2ccc(N(C)C)nn2)c(NCC(=O)N2CCN(Cc3ccc(Nc4ncc(F)c(-c5cc(F)c6nc(C)n(C(C)C)c6c5)n4)nc3)CC2)n1 [CPD-656]	activity at 0.1 µM	> 85%
CC(=O)c1c(C)c2cnc(Nc3ccc(N4CCC(N(C)CC(=O)N5CCC(Nc6nc(NC(C)C)ccc6C(=O)Nc6ccc(N(C)C)nn6)CC5)CC4)cn3)nc2n(C2CCCC2)c1=O [CPD-360]	activity at 0.1 µM	55 to 85%
CNc1ccc(C(=O)Nc2ccc(N(C)C)nn2)c(NCCCC(=O)N2CCN(c3ccc(Nc4ncc5cc6n(c5n4)C4(CCCCC4)CNC6=O)nc3)CC2)n1 [CPD-633]	activity at 0.1 µM	> 85%
